- System under test: T1, DNTTIP1 (TdIF1), His-tagged (human, UniProt Q9H147 1-329)
- T1 sequence: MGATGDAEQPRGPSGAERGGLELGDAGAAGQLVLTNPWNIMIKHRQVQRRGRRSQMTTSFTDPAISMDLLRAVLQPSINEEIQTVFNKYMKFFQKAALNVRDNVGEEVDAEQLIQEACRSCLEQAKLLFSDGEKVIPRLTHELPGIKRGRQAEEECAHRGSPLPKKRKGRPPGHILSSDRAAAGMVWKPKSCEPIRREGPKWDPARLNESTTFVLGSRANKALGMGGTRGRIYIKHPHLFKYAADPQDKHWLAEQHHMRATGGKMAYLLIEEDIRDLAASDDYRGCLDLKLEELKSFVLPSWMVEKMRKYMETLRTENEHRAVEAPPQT
- Assay text: CD thermal denaturation; equimolar DNA; unit inferred, M assumed; Anisotropy: 15 nM DNA, 10 mM Na-PO4 pH 6.5, 150 mM KCl, 250 uM TCEP, 5% glycerol. Pull-down: 20 mM HEPES pH 7.9, 100 mM KCl, 10% glycerol, 0.05% CHAPS, poly(dIdC), oligo B, acetylated BSA, room temperature
- Condition summary: protein: recombinant; tags: N-term 6xHis; chain copies: 2; blunt
Measurement kind: Kd

Field request: Kd | item: DNTTIP_cons (dsDNA) DNA 1: CGCCAAATAAAAGTTGCATGGTCG DNA 2: CGACCATGCAACTTTTATTTGGCG ~7.38 nM
